These measurements were taken from PubChem BioAssay (NCI).

I'd be grateful if you could share measured TGI for these entries.
test system: IGROV1 ovarian; assay: NCI tumour cell line growth inhibition, 48 h

Prompt: Any idea what TGI was measured for `C#CC(C)(C)Oc1cc(O)c2c(=O)c3ccccc3n(C)c2c1` ?
Response: > 100 µM

Prompt: Any idea what TGI was measured for `COc1ccc2c(c1)C(=O)c1ccccc1C2` ?
Response: > 100 µM

Prompt: Any idea what TGI was measured for `CN(O)C(=O)Cc1ccc(OCc2cccc(Cl)c2)cc1` ?
Response: > 100 µM

Prompt: Any idea what TGI was measured for CC(C)(CO)N1C(=O)c2ccccc2C1(O)c1ccc(Cl)cc1 (stereo not given) ?
Response: > 100 µM

Prompt: Any idea what TGI was measured for `O=C(O)Cc1c[nH]c2ccc(F)cc12` ?
Response: > 100 µM

Prompt: Any idea what TGI was measured for `Cc1cc(O)cc(O)c1N=Nc1ccc([N+](=O)[O-])cc1` ?
Response: 66.3 µM

Prompt: Any idea what TGI was measured for `O=C1Oc2cc3c(c4cccc1c24)OCN(c1ccc(Cl)cc1)C3` ?
Response: > 100 µM

Prompt: Any idea what TGI was measured for CC1CCC[P+](Cc2ccccc2)(c2ccccc2)CC1 (stereo not given) ?
Response: > 100 µM

Prompt: Any idea what TGI was measured for `Cc1c(Cl)cccc1Nc1ncccc1C(=O)O` ?
Response: > 100 µM

Prompt: Any idea what TGI was measured for `O=C1C(Br)=Cc2c(Cl)sc(Cl)c21` ?
Response: 7.67 µM

====

tested on: SW-620 colon; experiment: NCI tumour cell line growth inhibition, 48 h
I'd be grateful if you could share measured TGI for these entries.
Note: unit µM is implicit; provide only the numeric part.

Prompt: Any idea what TGI was measured for `CC[n+]1ccc2c(c1)C(=O)c1nccc3c1c-2nc1ccccc13` ?
Response: 11.5

Prompt: Any idea what TGI was measured for `O=C1/C(=C/c2ccc([N+](=O)[O-])cc2)CNC/C1=C\c1ccc([N+](=O)[O-])cc1` ?
Response: 1.78

Prompt: Any idea what TGI was measured for `Cc1c(C(=O)/C=C/c2cccc3ccccc23)[n+](=O)c2ccccc2n1[O-]` ?
Response: 22.7

====

I'd be grateful if you could share measured TGI for these entries.
tested on: NCI-H23 lung; assay: NCI tumour cell line growth inhibition, 48 h

Prompt: Give the reported TGI for `COc1ccccc1NC(=O)c1ccc(/C=C/C(=O)c2nccn2C)cc1` (system: NCI-H23 lung).
Response: 1.5 µM

Prompt: Give the reported TGI for `ClCc1ccccc1CSc1ncnc2nc[nH]c12` (system: NCI-H23 lung).
Response: > 60 µM

Prompt: Give the reported TGI for `CC(C)/C(Cl)=N\OC(=O)NNc1ccccc1` (system: NCI-H23 lung).
Response: > 100 µM

Prompt: Give the reported TGI for `C=CC/C(C(=O)OC)=C(/C(=O)OC)N(CCC)CCC` (system: NCI-H23 lung).
Response: > 100 µM

====

I'd be grateful if you could share measured TGI for these entries.
system: SK-MEL-2 melanoma; assay: NCI tumour cell line growth inhibition, 48 h

Prompt: Any idea what TGI was measured for `CC(=O)CC(=O)c1cc2c(=O)oc(C)cc2oc1=O` ?
Response: > 37.5 µM

Prompt: Any idea what TGI was measured for `Cc1nc2cc(C(F)(F)F)ccc2[nH]c1=O` ?
Response: > 100 µM

Prompt: Any idea what TGI was measured for `COc1cc([C@@H]2c3cc4c(cc3C[C@H]3COC(=O)[C@@H]32)OCO4)cc(OC)c1OC` ?
Response: > 2.32 µM

Prompt: Any idea what TGI was measured for C[C@]12CCC(=O)C=C1CC[C@@H]1C2CC[C@]2(C)NC(=O)C(C#N)CC12 (stereo not given in full) ?
Response: > 100 µM

Prompt: Any idea what TGI was measured for `O=C(OCc1ccccc1)OOC(=O)OCc1ccccc1` ?
Response: > 100 µM

Prompt: Any idea what TGI was measured for `COc1ccc(CNc2nc3ccc(C(F)(F)F)cc3nc2-c2ccccc2)cc1OC` ?
Response: > 100 µM

Prompt: Any idea what TGI was measured for O=S(=O)(O)C(O)/C=C/c1ccccc1 (stereo not given) ?
Response: > 100 µM

Prompt: Any idea what TGI was measured for `Cc1ccc(C(=O)Nc2ccc(CP(=O)(O)O)cc2)cc1NC(=O)c1cccc(NC(=O)Nc2cccc(C(=O)Nc3cc(C(=O)Nc4ccc(CP(=O)(O)O)cc4)ccc3C)c2)c1` ?
Response: > 100 µM

Prompt: Any idea what TGI was measured for `Cc1cc2cccc(Cl)c2nc1C(=O)c1ccccc1` ?
Response: > 100 µM

Prompt: Any idea what TGI was measured for `CCN(CCCN(CC)C(=O)N[C@@H](Cc1ccccc1)C(=O)NC)C(=O)N[C@@H](Cc1ccccc1)C(=O)NC` ?
Response: > 100 µM

Prompt: Any idea what TGI was measured for O=C(CCc1ccc(O)cc1)c1c(O)cc(O)cc1OC1OC(CO)C(O)C(O)C1O (stereo not given) ?
Response: > 100 µM

Prompt: Any idea what TGI was measured for `Cn1c(-c2nonc2N)nc2cnccc21` ?
Response: > 25 µM

Prompt: Any idea what TGI was measured for `NC1(CCCCCCCCCCC(=O)O)CNCCNCCNCCNC1` ?
Response: > 100 µM

Prompt: Any idea what TGI was measured for COc1ccc(NC2Oc3cc4c(cc3C(c3cc(OC)c(OC)c(OC)c3)C2C)OCO4)cc1 (stereo not given) ?
Response: > 100 µM

Prompt: Any idea what TGI was measured for `COc1nc2c(cc1S(=O)(=O)c1ccccc1)CCc1c-2cnn1-c1ccccc1Cl` ?
Response: > 100 µM

Prompt: Any idea what TGI was measured for `Cc1cccc(C(C)(C)C)c1NC(=O)C(=O)Cc1nc2ccccc2s1` ?
Response: > 100 µM

Prompt: Any idea what TGI was measured for `c1ccc(N=c2snc(-c3ccccc3)s2)cc1` ?
Response: > 100 µM

Prompt: Any idea what TGI was measured for `Cc1cccc2c3ccc4c(c3n(C)c12)C(=O)C=CC4=O` ?
Response: > 100 µM

Prompt: Any idea what TGI was measured for `COc1ccc2c(c1)C(=O)c1ccccc1C2` ?
Response: > 100 µM

Prompt: Any idea what TGI was measured for O=c1[nH]c(=O)n(C2CC(O)C(CO)O2)cc1C#Cc1c(F)c(F)c(F)c(F)c1F (stereo not given) ?
Response: > 100 µM
